As shown below, each of these binders has a reported % of FtsZ GTPase rate value.
Target: T1, FtsZ (purified, C. crescentus) (Caulobacter crescentus, UniProt B8H080 1-508)
T1 sequence (looked up): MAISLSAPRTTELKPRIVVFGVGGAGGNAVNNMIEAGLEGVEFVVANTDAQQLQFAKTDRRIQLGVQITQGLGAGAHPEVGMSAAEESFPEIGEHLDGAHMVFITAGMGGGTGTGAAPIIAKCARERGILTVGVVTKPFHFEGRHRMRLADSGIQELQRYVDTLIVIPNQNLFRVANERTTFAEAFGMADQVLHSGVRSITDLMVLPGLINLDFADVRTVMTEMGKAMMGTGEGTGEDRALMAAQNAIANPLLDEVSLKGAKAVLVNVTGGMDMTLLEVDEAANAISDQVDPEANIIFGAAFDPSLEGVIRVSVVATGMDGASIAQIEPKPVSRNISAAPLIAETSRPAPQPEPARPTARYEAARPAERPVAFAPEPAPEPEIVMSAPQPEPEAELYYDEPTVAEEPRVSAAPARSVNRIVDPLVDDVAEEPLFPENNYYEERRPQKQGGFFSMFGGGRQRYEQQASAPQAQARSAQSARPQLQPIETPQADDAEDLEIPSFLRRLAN
Test: cell-based or functional assay

# BINDER, % of FtsZ GTPase rate
records = [
    ("FzlA^NH2 (R140D E141K) (natural protein, Caulobacter crescentus, FzlA, Caulobacter crescentus, with R140D E141K; also called no helices; source: E. coli Rosetta (DE3) pLysS, purified (HisTrap, His6-SUMO cleaved)) MSVERTLHHFPLDPASRQVRLALGEKRLPFVEMQVRYWEMPPEFTSLNPSGMPPVLVETKHQRNLVICETRAILEHIEETETEPPLLGRDPAERAEARRLLQWFDRKFDNEVNGFLLHEKMEKRLLRMGAPDLAALRQGDKALRMHLGYIESLLQTRDWLAGRRMSLADFAAAAHLSVIDYFGDVPWKDFQAAKTWYMKLKSRPCFRPILADRWPGLAPAAHYDDLDF", "85%"),
    ("FzlA^NB1 (W38A R124D) (natural protein, Caulobacter crescentus, FzlA, Caulobacter crescentus, with W38A R124D; Self-aggregates under the standard conditions (pH 6.5, 2:1 FzlA:FtsZ); source: E. coli Rosetta (DE3) pLysS, purified (HisTrap, His6-SUMO cleaved)) MSVERTLHHFPLDPASRQVRLALGEKRLPFVEMQVRYAEMPPEFTSLNPSGMPPVLVETKHQRNLVICETRAILEHIEETETEPPLLGRDPAERAEARRLLQWFDRKFDNEVNGFLLHEKMEKDLLRMGAPDLAALRQGREALRMHLGYIESLLQTRDWLAGRRMSLADFAAAAHLSVIDYFGDVPWKDFQAAKTWYMKLKSRPCFRPILADRWPGLAPAAHYDDLDF", "96.3%"),
    ("FzlA^NB2 (E119K) (natural protein, Caulobacter crescentus, FzlA, Caulobacter crescentus, with E119K; source: E. coli Rosetta (DE3) pLysS, purified (HisTrap, His6-SUMO cleaved)) MSVERTLHHFPLDPASRQVRLALGEKRLPFVEMQVRYWEMPPEFTSLNPSGMPPVLVETKHQRNLVICETRAILEHIEETETEPPLLGRDPAERAEARRLLQWFDRKFDNEVNGFLLHKKMEKRLLRMGAPDLAALRQGREALRMHLGYIESLLQTRDWLAGRRMSLADFAAAAHLSVIDYFGDVPWKDFQAAKTWYMKLKSRPCFRPILADRWPGLAPAAHYDDLDF", "98.9%"),
    ("FzlA^UE2 (D227K) (natural protein, Caulobacter crescentus, FzlA, Caulobacter crescentus, with D227K; also called unknown essential activity; source: E. coli Rosetta (DE3) pLysS, purified (HisTrap, His6-SUMO cleaved)) MSVERTLHHFPLDPASRQVRLALGEKRLPFVEMQVRYWEMPPEFTSLNPSGMPPVLVETKHQRNLVICETRAILEHIEETETEPPLLGRDPAERAEARRLLQWFDRKFDNEVNGFLLHEKMEKRLLRMGAPDLAALRQGREALRMHLGYIESLLQTRDWLAGRRMSLADFAAAAHLSVIDYFGDVPWKDFQAAKTWYMKLKSRPCFRPILADRWPGLAPAAHYDDLKF", "42.6%"),
    ("FzlA^NH1 (P131A L136A R137E) (natural protein, Caulobacter crescentus, FzlA, Caulobacter crescentus, with P131A L136A R137E; also called no helices; source: E. coli Rosetta (DE3) pLysS, purified (HisTrap, His6-SUMO cleaved)) MSVERTLHHFPLDPASRQVRLALGEKRLPFVEMQVRYWEMPPEFTSLNPSGMPPVLVETKHQRNLVICETRAILEHIEETETEPPLLGRDPAERAEARRLLQWFDRKFDNEVNGFLLHEKMEKRLLRMGAADLAAAEQGREALRMHLGYIESLLQTRDWLAGRRMSLADFAAAAHLSVIDYFGDVPWKDFQAAKTWYMKLKSRPCFRPILADRWPGLAPAAHYDDLDF", "86.2%"),
]

The values you see were collected from paper PMC5760450.
